# System: Calu-3 (Her2 amp)
# METHOD_NOTES: Growth inhibition GI50 in vitro (CCK8/MTT, 72 h)
# Type: cell-based
# CONDITION_DESCRIPTION: Homo sapiens; Calu-3, EGFR wt, Her2 amp; read-out: GI50
RECORDED_ENDPOINT: GI50 (nM)

Below are worked cases with known answers.
{"MOLECULE": "C=CC(=O)Nc1cc(Nc2cc(Nc3ccc(F)c(Cl)c3)ncn2)c(OC)cc1N(C)CCN(C)C", "MEASUREMENT": 12.5}
{"MOLECULE": "C=CC(=O)Nc1cc(Nc2nccc(-c3cn(C)c4ccccc34)n2)c(OC)cc1N(C)CCN(C)C [AZD9291, reference compound]", "MEASUREMENT": 686}

P: C=CC(=O)Nc1cc(Nc2nccc(Nc3ccc(OCc4ccccn4)c(Cl)c3)n2)c(OC)cc1N(C)CCN(C)C
Q: C=CC(=O)Nc1cc(Nc2cc(Nc3ccc(F)c(Cl)c3)ncn2)c(OC)cc1N1CCN(C2CCN(C)CC2)CC1
query: Among P and Q , which shows a numerically higher GI50 result? Your choice should be expressed through its label.
result: P

Where do the numbers come from? From patent US10342796B2.
